Provenance of the data: patent US5760176A

# Test system: MG-63 cells
# test.settings: Table III; 50 μg/well
So I've got a bunch of substances here, and I need their percentage of maximum binding (cell attachment) values.

Past entries and their recorded results:
nMeGRGDSPASSKS3 RF6 RNH2 : 69 percentage of maximum binding
nMeG(dR)GDSPASSKRF4 RNH2 [nMeGRGDSPASSKRF4 RNH2] : 73 percentage of maximum binding
nMEGRGDSPASSKRF6 RNH2 : 75 percentage of maximum binding

Field: next substance
INPUT: Quote percentage of maximum binding (cell attachment) with test system MG-63 cells for nMeGRGDSPASSKRL5 RNH2
OUTPUT: 68 percentage of maximum binding
